- Tested on: F1*sub RNA substrate (template-directed ligation)
- protocolNotes: fraction ligated after 30 min (ligated reads / total reads); higher = more ligase activity; sequences stand for … in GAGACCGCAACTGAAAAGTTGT…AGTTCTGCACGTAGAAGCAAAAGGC
- conditionDetails: 42 °C
Response key: met means fraction ligated >= 0.2; not met means fraction ligated < 0.2.

Hi team, for TACACTTGTCGTAAGCACTTTGGATGGTTGA [3d689] , is the recorded fraction ligated at or above 0.2?
not met

Hi team, for TATCACTTTCGTAAGACACTTGGAGGGTTGA [3d1564] , is the recorded fraction ligated at or above 0.2?
not met

Hi team, for ACACTTGTCGTAAGACACTTGGATGGGTTGA [3d39] , is the recorded fraction ligated at or above 0.2?
not met

Hi team, for TTCACTTGTCGTAAGACATTTGGATGGGTTGA [2d39] , is the recorded fraction ligated at or above 0.2?
met

Hi team, for TATCCTTGTCGTAAGAACTTTGGATGGGTTG [3d1082] , is the recorded fraction ligated at or above 0.2?
met

Hi team, for TTCCTTGTCGTAAGACACTTTGGAGGGTTGA [3d313] , is the recorded fraction ligated at or above 0.2?
not met

Hi team, for TATCACTTGTCGTAACCTTTGGATGGGTTGA [3d1994] , is the recorded fraction ligated at or above 0.2?
met

Hi team, for TACCTTGTCGTAGACACTTTGGATGGGTTGA [3d534] , is the recorded fraction ligated at or above 0.2?
met

Hi team, for TTCACTTGTCGAAGAACTTTGGATGGGTTGA [3d419] , is the recorded fraction ligated at or above 0.2?
met

Hi team, for TATCATGTGTAAGACACTTTGGATGGGTTGA [3d1124] , is the recorded fraction ligated at or above 0.2?
met

Hi team, for TATACTTGTCGTAAGACATTTGGATGGTTGA [3d922] , is the recorded fraction ligated at or above 0.2?
not met
